target: T antigen (Simian virus 40); experiment: ATPase activity of purified T antigen; type: biochemical, polyomavirus; conditions: compound 10 μM; purified T antigen; normalized to DMSO; mean of 3 experiments
Fold change in ATPase activity of T antigen listing for selected molecules.
observed_property: Fold change in ATPase activity of T antigen (fold)

CC1=C(C(=O)OCc2ccccc2)C(c2ccc(-c3ccccc3C)cc2)N(Cc2ccc(-c3nnn[nH]3)cc2)C(=S)N1 (stereo not shown) [AMT551-058] :: −7.5
CC1=C(C(=O)OCc2ccccc2)C(c2ccc(-c3ccccc3C)cc2)NC(=S)N1Cc1ccc(-c2nnn[nH]2)cc1 (stereo not shown) [AMT551-093] :: −7.7
CC1=C(C(=O)OCc2ccccc2)C(c2ccc(-c3ccccc3C)cc2)NC(=S)N1CCCCCc1nnn[nH]1 (stereo not shown) [AMT580-033] :: −4.7
CC1=C(C(=O)OCc2ccccc2)C(c2ccc(-c3ccccc3)cc2)NC(=O)N1Cc1ccc(-c2nnn[nH]2)cc1 (stereo not shown) [ML282-56] :: −2.0
CC1=C(C(=O)OCc2ccccc2)C(c2ccc(-c3ccccc3)cc2)N(CCCCCC(=O)O)C(=S)N1 (stereo not shown) [AMT551-071] :: −1.6
CC1=C(C(=O)OCc2ccccc2)C(c2ccc(-c3ccccc3)cc2)NC(=S)N1CCCCCc1nnn[nH]1 (stereo not shown) [AMT580-027] :: −2.1
CC1=C(C(=O)OCc2ccccc2)C(c2ccc(-c3ccccc3)cc2)NC(=O)N1CCCCCc1nnn[nH]1 (stereo not shown) [BQU015242] :: −1.4

====

biological target: T antigen (Simian virus 40, UniProt P03070); assay: ATPase activity of purified T antigen; type: biochemical, polyomavirus; conditions: compound 10 μM; purified T antigen; normalized to DMSO; mean of 3 experiments
Sequence (P03070 whole entry): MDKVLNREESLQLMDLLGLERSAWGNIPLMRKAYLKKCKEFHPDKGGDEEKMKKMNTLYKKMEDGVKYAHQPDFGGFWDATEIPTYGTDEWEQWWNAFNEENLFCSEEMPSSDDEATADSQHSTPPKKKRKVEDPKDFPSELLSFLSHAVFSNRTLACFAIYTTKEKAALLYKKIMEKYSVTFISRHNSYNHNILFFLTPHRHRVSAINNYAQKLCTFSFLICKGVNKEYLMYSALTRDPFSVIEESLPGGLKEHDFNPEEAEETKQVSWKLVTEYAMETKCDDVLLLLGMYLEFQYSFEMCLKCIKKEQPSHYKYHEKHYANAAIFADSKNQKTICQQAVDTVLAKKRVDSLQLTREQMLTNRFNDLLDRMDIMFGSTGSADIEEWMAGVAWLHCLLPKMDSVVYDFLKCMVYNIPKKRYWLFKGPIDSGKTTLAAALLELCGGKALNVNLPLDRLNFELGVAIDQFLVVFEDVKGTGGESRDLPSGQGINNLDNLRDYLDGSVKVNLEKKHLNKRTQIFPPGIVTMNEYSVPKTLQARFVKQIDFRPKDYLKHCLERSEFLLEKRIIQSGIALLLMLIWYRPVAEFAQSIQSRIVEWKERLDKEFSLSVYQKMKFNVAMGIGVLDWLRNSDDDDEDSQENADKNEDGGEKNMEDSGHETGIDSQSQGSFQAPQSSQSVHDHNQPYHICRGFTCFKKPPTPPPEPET
# strict inequality: Fold change in ATPase activity of T antigen < -2 fold yields YES, everything else yields NO

CC1=C(C(=O)OCc2ccccc2)C(c2ccc(-c3ccccc3)cc2)NC(=O)N1CCCCCC(=O)O (stereo not drawn) [MAL2-11B] :: NO
CC1=C(C(=O)OCc2ccccc2)C(c2ccc(-c3ccccc3)cc2)NC(=S)N1Cc1ccc(-c2nnn[nH]2)cc1 (stereo not drawn) [AMT551-078] :: YES
CC1=C(C(=O)OCc2ccccc2)C(c2ccc(-c3ccccc3)cc2)NC(=S)N1CCCCCC(=O)O (stereo not drawn) [AMT551-090] :: NO
CC1=C(C(=O)OCc2ccccc2)C(c2ccc(-c3ccccc3C)cc2)NC(=O)N1CCCCCc1nnn[nH]1 (stereo not drawn) [LR340-006] :: YES
CC1=C(C(=O)OCc2ccccc2)C(c2ccc(-c3ccccc3)cc2)N(Cc2ccc(-c3nnn[nH]3)cc2)C(=O)N1 (stereo not drawn) [AMT628-003] :: YES
CC1=C(C(=O)OCc2ccccc2)C(c2ccc(-c3ccccc3)cc2)N(Cc2ccc(-c3nnn[nH]3)cc2)C(=S)N1 (stereo not drawn) [AMT580-043] :: YES

Ref: paper PMC5050167
